tested on: LTD4; assay: LTD4 antagonism in isolated guinea-pig trachea with indomethacin (method (ii)); type: cell-based; details: Cavia porcellus, 0.5 h, 10^-6 g/ml test compound, 30 min prior to LTD4
Readout Label: inhibition at 1 µg/mL (%)
Answers are plain numbers, in %.

Below, 5 compounds whose answers are already recorded.
CCOc1cc(CNc2cnn(C3CCCC3)c(=O)c2Cl)ccc1OC
38
C=CCn1ncc(NCc2ccc(OC)c(OCCC)c2)c(Cl)c1=O
31
CCCCCCOc1cc(CNc2cn[nH]c(=O)c2Br)ccc1OC
87
CCCCCCCOc1cc(CNc2cn[nH]c(=O)c2Br)ccc1OC
78
CCCCCCCOc1cc(CNc2cn[nH]c(=O)c2Cl)ccc1OC
96

Required: inhibition at 1 µg/mL, one value per compound below.
1. C=CCn1ncc(NCc2ccc(OC)c(OCC)c2)c(Cl)c1=O
2. Cc1ccc(CNc2cn[nH]c(=O)c2Cl)c(C)c1
3. COc1ccc(CNc2cnn(Cc3ccccc3)c(=O)c2Cl)cc1
4. CCOc1cc(CNc2cnn(-c3ccccc3)c(=O)c2Cl)ccc1OC
5. COc1ccc(CNc2cnn(-c3ccccc3)c(=O)c2Cl)cc1

28
22
23
42
20
